- tested system: Adrenergic receptor alpha-1 (Rattus norvegicus, UniProt P15823+P23944+P43140)
- protocol text: The compound was tested for its binding affinity towards Alpha-1 adrenergic receptor by displacing [3H]WB-4101 radioligand in rat cerebral cortex
- Type: tissue-based
quantity: log10 of Ki (log10 of the value in nM)
Units before log transform: nM; reported quantity: Ki; transform: log10.

Some compounds with known log10 of Ki results, for comparison:
>  <sample smiles>
COc1ccccc1N1CCN(Cc2ccc(CN3CCCCC3=O)n2C)CC1

>  <quantity>
log10 of Ki

>  <result number>
2.22

$$$$
>  <sample smiles>
CCCCOc1ccccc1N1CCN(Cc2ccc(CN3CCCCCC3=O)n2C)CC1

>  <quantity>
log10 of Ki

>  <result number>
1.20

$$$$

We next turn to a different compound, shown below.
QUERY: Tell me its log10 of Ki given CCc1ccccc1N1CCN(Cc2ccc(CN3CCCC3=O)n2C)CC1 as the entry.
RESULT: 1.58

---

- tested system: Serotonin 2 (5-HT2) receptor (Rattus norvegicus, UniProt P30994+P08909+P14842)
- protocol text: The compound was tested for its binding affinity towards 5-hydroxytryptamine 2 receptor by displacing [3H]ketanserin radioligand in rat cerebral cortex
- Type: tissue-based
quantity: Ki (µM)
Report the value in µM with no unit label.

>  <molecule>
CCC(C)Oc1ccccc1N1CCN(Cc2ccc(CN3CCCCC3=O)n2C)CC1 (configuration not stated)

>  <endpoint unit>
µM

>  <result number>
0.267

$$$$

QUERY: Answer with the recorded Ki for the molecule listed here: CCCc1ccccc1N1CCN(Cc2ccc(CN3CCCC3=O)n2C)CC1
RESULT: 0.317

QUERY: Quote Ki reported for CC(C)Oc1ccccc1N1CCN(Cc2ccc(CN3CCCCC3=O)[nH]2)CC1 please.
RESULT: 0.0553

QUERY: Dear colleague, please send me the reported Ki for CCc1ccccc1N1CCN(Cc2ccc(CN3CCCCC3=O)n2C)CC1 when you can.
RESULT: 0.355

QUERY: Provide Ki value for the following molecule: CC(C)c1ccccc1N1CCN(Cc2ccc(CN3CCCCCC3=O)n2C)CC1
RESULT: 0.11

QUERY: Using known records, supply Ki for Cn1c(CN2CCN(c3cccc(Cl)c3)CC2)ccc1CN1CCCC1=O
RESULT: 0.256

QUERY: Supply recorded Ki for COc1ccccc1N1CCN(Cc2ccc(CN3CCCC3=O)[nH]2)CC1 here.
RESULT: 1

---

- System: Rattus norvegicus
- protocol text: Antipsychotic activity at a dose 10 times the ED50 value for CAR block for production of catalepsy in the rat (following i.p. dosing)
- Type: functional
- measurement parameters: ip
Overview of reported ED50 across a group of compounds:
State the answer as a number, implicitly in mg/kg.

>  <sample smiles>
CC(C)c1ccccc1N1CCN(Cc2ccc(CN3CCCCC3=O)n2C)CC1

>  <result number>
8.9

$$$$
>  <sample smiles>
CC(C)Oc1ccccc1N1CCN(Cc2ccc(CN3CCCC3=O)n2C)CC1

>  <result number>
2.2

$$$$
>  <sample smiles>
CC(C)Oc1ccccc1N1CCN(Cc2ccc(CN3CCCCCCC3=O)n2C)CC1

>  <result number>
4

$$$$
>  <sample smiles>
CC(C)Oc1ccccc1N1CCN(Cc2ccc(CN3CCCCC3=O)[nH]2)CC1

>  <result number>
4

$$$$
>  <sample smiles>
CC(C)c1ccccc1N1CCN(Cc2ccc(CN3CCCCCC3=O)n2C)CC1

>  <result number>
10

$$$$
>  <sample smiles>
Cn1c(CN2CCN(c3cccc(Cl)c3)CC2)ccc1CN1CCCCC1=O

>  <result number>
10.4

$$$$

QUERY: State ED50 on Rattus norvegicus. Entry: CC(C)c1ccccc1N1CCN(Cc2ccc(CN3CCCC3=O)n2C)CC1
RESULT: 5.8

QUERY: Using Rattus norvegicus as the test system, report measured ED50 of COc1ccccc1N1CCN(Cc2ccc(CN3CCCCCC3=O)n2C)CC1 .
RESULT: 2.1

QUERY: Provide the reported ED50 (system: Rattus norvegicus) for CCOc1ccccc1N1CCN(Cc2ccc(CN3CCCC3=O)n2C)CC1
RESULT: 1.8

QUERY: Name the value of ED50 reported for COc1ccccc1N1CCN(Cc2ccc(CN3CCCCCCC3=O)n2C)CC1 when tested on Rattus norvegicus.
RESULT: 8.2

QUERY: Report ED50 from Rattus norvegicus testing of Cn1c(CN2CCN(c3cccc(Cl)c3)CC2)ccc1CN1CCCC1=O
RESULT: 12.3

QUERY: Fetch value of ED50 on Rattus norvegicus for CCc1ccccc1N1CCN(Cc2ccc(CN3CCCC3=O)n2C)CC1 .
RESULT: 15
